- test-summary: Thermodynamic solubility
- Format: physicochemical
- condition-summary: aqueous buffer, thermodynamic from solid; phosphate buffered saline, pH 7.4; ambient temperature overnight
recorded-endpoint: solubility (mg/mL)
Dear colleague, please return just the value in mg/mL, with no unit written.

- line-notation: "COCCOCCOCCOCCOCCOCCOCCOCCOCCN1CCN(Cc2ccc(C(=O)Nc3ccc(C)c(Nc4nccc(-c5cccnc5)n4)c3)cc2)CC1"
  measurement-unit: "mg/mL"
  solubility: 2.5
- line-notation: "COCCOCCOCCOCCOCCNCc1ccc(C(=O)Nc2ccc(C)c(Nc3nccc(-c4cccnc4)n3)c2)cc1"
  measurement-unit: "mg/mL"
  solubility: 3.4
- line-notation: "COCCOCCOCCNCc1ccc(C(=O)Nc2ccc(C)c(Nc3nccc(-c4cccnc4)n3)c2)cc1"
  measurement-unit: "mg/mL"
  solubility: 3.3

Query block: Specify measured solubility for COCCOCCOCCOCCOCCOCCOCCNCc1ccc(C(=O)Nc2ccc(C)c(Nc3nccc(-c4cccnc4)n3)c2)cc1 .
Result block: 3.6

# credit: patent US20120094998A1
